# System: KE-37 (T-Lymphoblastic Leukemia)
# testProtocol: combination Emax (second highest fraction inhibited in the dose matrix, 72 h); higher = more inhibition; extreme values may be limits of the assay
attributeMeasured: combination Emax

Lookup: Given the entry COc1nnc2ccc(N3CCC(c4ccc(OCCN5CCN(C)C(=O)[C@H]5C)cc4)CC3)nn12 [AZD5153] + CC1(C)CCC(CN2CCN(c3ccc(C(=O)NS(=O)(=O)c4ccc(NCC5CCOCC5)c([N+](=O)[O-])c4)c(Oc4cnc5[nH]ccc5c4)c3)CC2)=C(c2ccc(Cl)cc2)C1 [Venetoclax] (first compound max 1 µM, 7x7, partner max 1 µM) , report its measured combination Emax.
Found: 0.7

Lookup: Query: combination Emax; subject: Cc1cc2ncnn2cc1Nc1ncc2c(n1)n(C1CCOCC1)c(=O)n2C [AZD7648] + O=C(c1cc(Cc2n[nH]c(=O)c3ccccc23)ccc1F)N1CCN(C(=O)C2CC2)CC1 [Olaparib] (first compound max 10 µM, 7x7, partner max 10 µM)
Found: 0.585

Lookup: Item under review: COc1cccc(OCCCN)c1-c1cc(Nc2cnc(C#N)cn2)n[nH]1 [Prexasertib] + O=C(c1cc(Cc2n[nH]c(=O)c3ccccc23)ccc1F)N1CCN(C(=O)C2CC2)CC1 [Olaparib] (first compound max 1 µM, 7x7, partner max 10 µM) . Reported combination Emax?
Found: 1

Lookup: I would be grateful if you could share the reported combination Emax for C=CCn1c(=O)c2cnc(Nc3ccc(N4CCN(C)CC4)cc3)nc2n1-c1cccc(C(C)(C)O)n1 [AZD1775] + C[C@@H]1COCCN1C2=NC(=NC(=C2)C3(CC3)[S@](=N)(=O)C)C4=C5C=CNC5=NC=C4 [AZD6738] (first compound max 1 µM, partner max 10 µM) .
Found: 1

---

Please provide measured combination Emax for the entries that follow.
# Test system: PC-3_[JPC-3] (Lung Adenocarcinoma)
# testProtocol: combination Emax (second highest fraction inhibited in the dose matrix, 72 h); higher = more inhibition; extreme values may be limits of the assay
The answer should be a number; do not append a unit.

Lookup: For the compound shown here, NC1(C(=O)N[C@@H](CCO)c2ccc(Cl)cc2)CCN(c2ncnc3[nH]ccc23)CC1 [Capivasertib] + Cn1cnc2c(F)c(Nc3ccc(Br)cc3Cl)c(C(=O)NOCCO)cc21 [Selumetinib] (first compound max 10 µM, 7x7, partner max 10 µM) , give the reported combination Emax.
Found: 0.382

Lookup: What does the data say about its combination Emax? Entry: Cc1c2c(nn1C)CSCc1cc(n(C)n1)CSc1cc(c3ccccc3c1)OCCCc1c(C(=O)O)n(C)c3c-2c(Cl)ccc13 [AZD5991] + CN(C)CCCOc1ccc(-c2ccc3ncc4c(c3c2)n(C2CCOCC2)c(=O)n4C)cn1 [AZD0156] (first compound max 1 µM, 7x7, partner max 1 µM)
Found: 0.279

Lookup: What value of combination Emax has been reported for the following compound? COc1cccc2c1C(=O)c1c(O)c3c(c(O)c1C2=O)C[C@@](O)(C(=O)CO)C[C@@H]3O[C@H]1C[C@H](N)[C@H](O)[C@H](C)O1 [Doxorubicin] + Cc1cc2ncnn2cc1Nc1ncc2c(n1)n(C1CCOCC1)c(=O)n2C [AZD7648] (first compound max 1 µM, 7x7, partner max 10 µM)
Found: 0.57

Lookup: # combination Emax lookup, item NC1(C(=O)N[C@@H](CCO)c2ccc(Cl)cc2)CCN(c2ncnc3[nH]ccc23)CC1 [Capivasertib] + CC(C)n1c(=O)n(C)c2cnc3cc(F)c(-c4ccc(OCCCN5CCCCC5)nc4)cc3c21 [AZD1390] (first compound max 10 µM, 7x7, partner max 0.3 µM)
Found: 0.176

The values you see were collected from the supplement of paper PMC11061612.
